Attribute: EC50
Biological target: LXRα ligand-binding domain (LBD) (Homo sapiens)
Sequence (Q13133 155-447): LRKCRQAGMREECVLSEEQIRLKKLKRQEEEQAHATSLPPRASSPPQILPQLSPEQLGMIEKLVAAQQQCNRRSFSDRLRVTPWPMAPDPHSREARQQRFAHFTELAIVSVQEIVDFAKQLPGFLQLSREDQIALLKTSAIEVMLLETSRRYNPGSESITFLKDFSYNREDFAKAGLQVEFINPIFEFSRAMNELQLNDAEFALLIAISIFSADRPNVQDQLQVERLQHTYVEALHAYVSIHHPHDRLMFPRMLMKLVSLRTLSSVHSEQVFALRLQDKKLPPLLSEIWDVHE
Experiment: LXR Gal4 reporter transient transfection assay, mammalian two-hybrid, LBD-M2H Gal4α
Settings: HEK293 cells; inverse agonist unless *

Known results for compounds:
- compound: "CC(C)(C(=O)O)c1cccc(-c2ccc(CN(Cc3ccc(C(F)(F)F)o3)Cc3cccc4c3OC(F)(F)O4)cc2)c1 [25/2]"
  assay_system: "LXRα ligand-binding domain (LBD) (Homo sapiens)"
  EC50: "100 to 1000 nM"
- compound: "CC(c1cccc2ccccc12)N(Cc1ccc(-c2cccc(S(=O)(=O)CC(=O)O)c2)cc1)Cc1ccc(C(F)(F)F)o1 (centres unmarked) [Example 7]"
  assay_system: "LXRα ligand-binding domain (LBD) (Homo sapiens)"
  EC50: "< 100 nM"
- compound: "Cc1ccc(CN(Cc2ccc(-c3cccc(C(C)(C)C(=O)O)c3)cc2)Cc2ccc(C(F)(F)F)o2)c2ccccc12 [24/1]"
  assay_system: "LXRα ligand-binding domain (LBD) (Homo sapiens)"
  EC50: "< 100 nM"
- compound: "Cc1ccc2ccccc2c1CN(Cc1ccc(-c2cc(C(C)(C)C(=O)O)ccn2)cc1)Cc1ccc(C(F)(F)F)o1 [14/1]"
  assay_system: "LXRα ligand-binding domain (LBD) (Homo sapiens)"
  EC50: "100 to 1000 nM"
- compound: "Cc1cc(C)c(C(=O)N(Cc2ccc(-c3cccc(C(C)(C)C(=O)O)c3)cc2)Cc2ccc(C(F)(F)F)o2)c(C)c1 [10/1]"
  assay_system: "LXRα ligand-binding domain (LBD) (Homo sapiens)"
  EC50: "100 to 1000 nM"

Here is another compound to look at.
Considering CC(C)(C(=O)O)c1cccc(-c2ccc(CN(Cc3ccc(C(F)(F)F)o3)Cc3c(C(F)F)ccc4ccccc34)cc2)c1 [27/69] , its EC50 with LXRα ligand-binding domain (LBD) (Homo sapiens) was recorded as < 100 nM

====

assay: Short term HFD mouse model: liver and plasma exposure after multiple oral dosing; format: in vivo, mice (C57BL/6J); settings: C57BL/6J, liver, HFD mice, three oral doses of 10 mg/kg each, 4 h after final dose, read-out: liver exposure, 4 h
Attribute: log10 concentration at 4 h
Field: value | Transform: log10 | Quantity: concentration at 4 h | Unit: µM

- molecule: "Cc1ccc2ccccc2c1C(=O)N(Cc1ccc(-c2cccc(C(C)(C)C(=O)O)c2)cc1)Cc1ccc(C(F)F)o1 [27/36]"
  log10 concentration at 4 h: 1.90
- molecule: "Cc1ccc2ccccc2c1C(=O)N(Cc1ccc(-c2cc(F)cc(C3(C(=O)O)CC3)c2)cc1)Cc1ccc(C(F)(F)F)o1 [27/76]"
  log10 concentration at 4 h: 1.58
- molecule: "COc1ccc2c(c1C(=O)N(Cc1ccc(-c3cccc(C(C)(C)C(=O)O)c3)cc1)Cc1ccc(C(F)(F)F)o1)CCCC2 [27/45]"
  log10 concentration at 4 h: 2.51
- molecule: "COc1c(C)nc2ccccc2c1C(=O)N(Cc1ccc(-c2cccc(C(C)(C)C(=O)O)c2)cc1)Cc1ccc(C(F)(F)F)o1 [27/81]"
  log10 concentration at 4 h: 1.64

Here is another molecule to look at.
In plain terms, Cc1ccc2ccccc2c1CN(Cc1ccc(-c2cccc([C@@H](C)C(=O)O)c2)cc1)Cc1ccc(C(F)(F)F)o1 [27/72] has a documented log10 concentration at 4 h of 0.31

Origin of values: patent US20200131144A1
